pIC50 data for MNK2a (Homo sapiens (Human)) follow.
pIC50: −log10 of the molar value.
endpoint.label: pIC50

{"compound": "C[C@@H](Oc1cc(F)ccc1Nc1ncnc2cc(N=S3(=O)CCC3)cc(Cl)c12)C(=O)NCC(F)(F)F", "observed.measurement": 9.00}
{"compound": "Cc1cc(N=S2(=O)CCC2)cc2ncnc(Nc3ccc(F)cc3O[C@H](C)C(=O)N[C@@H](C)C(F)(F)F)c12", "observed.measurement": 9.00}
{"compound": "C[C@@H](C#N)NC(=O)[C@@H](C)Oc1cc(Cl)ccc1Nc1ncnc2cc(N=S3(=O)CCCC3)cc(F)c12", "observed.measurement": 9.00}
{"compound": "Cc1cc(COc2cc(F)ccc2Nc2ncnc3cc(N=S(C)(C)=O)cc(C)c23)no1", "observed.measurement": 8.15}
{"compound": "Cc1cc(N=S(C)(C)=O)cc2ncnc(Nc3ccc(F)cc3OC(C)Cn3ccnc3C)c12 (stereo not shown)", "observed.measurement": 8.52}
{"compound": "Cc1cc(N=S2(=O)CCCC2)cc2ncnc(Nc3ccc(F)cc3O[C@H](C)C(=O)N3CCC(O)C3)c12 (stereo partly shown)", "observed.measurement": 8.40}
{"compound": "Cc1cc(N=S2(=O)CCC2)cc2ncnc(Nc3ccc(F)cc3O[C@H](C)C(=O)NCCC(F)(F)F)c12", "observed.measurement": 9.00}

* * *

Target: MNK2a (Homo sapiens (Human))
Sequence (Q9HBH9 whole entry): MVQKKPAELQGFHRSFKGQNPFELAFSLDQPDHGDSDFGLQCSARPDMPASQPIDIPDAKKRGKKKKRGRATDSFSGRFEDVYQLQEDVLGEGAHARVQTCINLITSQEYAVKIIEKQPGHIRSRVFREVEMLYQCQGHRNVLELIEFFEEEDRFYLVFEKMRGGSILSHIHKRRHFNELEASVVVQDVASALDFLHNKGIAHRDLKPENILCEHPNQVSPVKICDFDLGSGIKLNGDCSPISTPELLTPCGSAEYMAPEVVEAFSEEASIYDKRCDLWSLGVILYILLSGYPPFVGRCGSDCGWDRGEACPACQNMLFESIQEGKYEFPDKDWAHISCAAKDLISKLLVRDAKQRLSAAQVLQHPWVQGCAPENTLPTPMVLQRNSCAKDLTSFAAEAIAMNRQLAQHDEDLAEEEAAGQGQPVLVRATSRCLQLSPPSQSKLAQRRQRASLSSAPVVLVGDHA
Kindly apply the following: condition met if IC50 is less than 3 nM, condition not met in every other case.

{"compound": "Cc1cc([C@@H](C)Oc2cc(F)ccc2Nc2ncnc3cc(N=S(C)(C)=O)cc(Cl)c23)on1", "target.system": "MNK2a (Homo sapiens (Human))", "label.value": "condition met"}
{"compound": "C[C@@H](C#N)NC(=O)[C@@H](C)Oc1cc(F)ccc1Nc1ncnc2cc(N=S3(=O)CCC3)cc(F)c12", "target.system": "MNK2a (Homo sapiens (Human))", "label.value": "condition met"}
{"compound": "C[C@@H](Oc1cc(F)ccc1Nc1ncnc2cc(N=S3(=O)CCC3)cc(F)c12)C(=O)NCC#N", "target.system": "MNK2a (Homo sapiens (Human))", "label.value": "condition met"}
{"compound": "C[C@@H](Oc1cc(F)ccc1Nc1ncnc2cc(N=S(C)(C)=O)cc(F)c12)C(=O)NC(CF)CF", "target.system": "MNK2a (Homo sapiens (Human))", "label.value": "condition not met"}
{"compound": "CC(NC(=O)[C@@H](C)Oc1cc(F)ccc1Nc1ncnc2cc(N=S3(=O)CCC3)cc(C(F)F)c12)C(F)F (some centres unmarked)", "target.system": "MNK2a (Homo sapiens (Human))", "label.value": "condition not met"}
{"compound": "Cc1cc([C@@H](C)Oc2cc(F)ccc2Nc2ncnc3cc(N=S4(=O)CCNCC4)cc(C)c23)on1", "target.system": "MNK2a (Homo sapiens (Human))", "label.value": "condition met"}
{"compound": "Cc1cc(N=S2(=O)CCCC2)cc2ncnc(Nc3cccnc3O[C@H](C)C(=O)NCC(F)(F)F)c12", "target.system": "MNK2a (Homo sapiens (Human))", "label.value": "condition met"}
{"compound": "Cc1cc(N=S(C)(C)=O)cc2ncnc(Nc3ccc(F)cc3O[C@H](C)CNS(C)(=O)=O)c12", "target.system": "MNK2a (Homo sapiens (Human))", "label.value": "condition not met"}
{"compound": "Cc1cc(N=S(C)(C)=O)cc2ncnc(Nc3ccc(F)cc3O[C@H](C)C(=O)NC3CCC3)c12", "target.system": "MNK2a (Homo sapiens (Human))", "label.value": "condition not met"}
{"compound": "Cc1cc([C@@H](C)Oc2cc(F)ccc2Nc2ncnc3cc(N=S4(=O)CCCC4)cc(C)c23)on1", "target.system": "MNK2a (Homo sapiens (Human))", "label.value": "condition not met"}
{"compound": "Cc1cc(N=S2(=O)CCCC2)cc2ncnc(Nc3ccc(F)cc3O[C@H](C)C(=O)NCC3CCCO3)c12 (some centres unmarked)", "target.system": "MNK2a (Homo sapiens (Human))", "label.value": "condition not met"}
{"compound": "Cc1cc(N=S(C)(C)=O)cc2ncnc(Nc3ccc(F)cc3O[C@H](C)C(=O)NC3COC3)c12", "target.system": "MNK2a (Homo sapiens (Human))", "label.value": "condition met"}
{"compound": "Cc1cc(N=S(C)(C)=O)cc2ncnc(Nc3ccc(F)cc3OC(C)C3CCCO3)c12 (centres unmarked)", "target.system": "MNK2a (Homo sapiens (Human))", "label.value": "condition not met"}
{"compound": "Cc1cc(N=S(C)(C)=O)cc2ncnc(Nc3ccc(F)cc3OCC3CCOC3)c12 (centres unmarked)", "target.system": "MNK2a (Homo sapiens (Human))", "label.value": "condition not met"}
{"compound": "Cc1cc(N=S2(=O)CCCC2)cc2ncnc(Nc3ccc(F)cc3O[C@H](C)C(=O)N[C@H]3CCOC3)c12", "target.system": "MNK2a (Homo sapiens (Human))", "label.value": "condition met"}
{"compound": "Cc1cc(N=S(C)(C)=O)cc2ncnc(Nc3ccc(F)cc3OCC3CCCCO3)c12 (centres unmarked)", "target.system": "MNK2a (Homo sapiens (Human))", "label.value": "condition met"}
{"compound": "C[C@@H](Oc1cc(F)ccc1Nc1ncnc2cc(N=S3(=O)CCC3)cc(F)c12)C(=O)NCC(F)(F)F", "target.system": "MNK2a (Homo sapiens (Human))", "label.value": "condition met"}
{"compound": "Cc1cc(N=S(C)(C)=O)cc2ncnc(Nc3cccnc3OC(C)C(F)(F)F)c12 (centres unmarked)", "target.system": "MNK2a (Homo sapiens (Human))", "label.value": "condition not met"}
{"compound": "Cc1cc(N=S(C)(C)=O)cc2ncnc(Nc3ccc(F)cc3O[C@H](C)C(=O)N3CCC(=O)CC3)c12", "target.system": "MNK2a (Homo sapiens (Human))", "label.value": "condition not met"}
{"compound": "COC(=O)N1CCS(=O)(=Nc2cc(C)c3c(Nc4ccc(F)cc4O[C@H](C)c4cc(C)no4)ncnc3c2)CC1", "target.system": "MNK2a (Homo sapiens (Human))", "label.value": "condition met"}
{"compound": "Cc1cc(N=S2(=O)CCC2)cc2ncnc(Nc3ccc(Cl)cc3O[C@H](C)C(=O)N[C@@H](C)C(F)(F)F)c12", "target.system": "MNK2a (Homo sapiens (Human))", "label.value": "condition met"}
{"compound": "Cc1cc(N=S2(=O)CCC2)cc2ncnc(Nc3ccc(F)cc3O[C@H](C)C(=O)NC(C)C)c12", "target.system": "MNK2a (Homo sapiens (Human))", "label.value": "condition met"}
{"compound": "Cc1cc(N=S2(=O)CCCC2)cc2ncnc(Nc3ccc(F)cc3OCc3ccccc3)c12", "target.system": "MNK2a (Homo sapiens (Human))", "label.value": "condition not met"}
{"compound": "CC(=O)NC[C@@H](C)Oc1cc(F)ccc1Nc1ncnc2cc(N=S(C)(C)=O)cc(C)c12", "target.system": "MNK2a (Homo sapiens (Human))", "label.value": "condition not met"}
{"compound": "Cc1cc([C@@H](C)Oc2cc(F)ccc2Nc2ncnc3cc(N=S4(=O)CCN(C)CC4)cc(C)c23)on1", "target.system": "MNK2a (Homo sapiens (Human))", "label.value": "condition met"}

* * *

Molecular target: UniProt:Q9HBH9
Assay: MNK2a in vitro kinase assay (Assay 2), ADP-Glo
Format: biochemical
Conditions: read-out: MNK2 IC50

{"compound": "COCC(C)Oc1cc(F)ccc1Nc1ncnc2cc(N=S(C)(C)=O)cc(C)c12 (stereo not shown)", "unit.spec": "nM", "IC50": 32}
{"compound": "Cc1cc(N=S2(=O)CCCC2)cc2ncnc(Nc3ccc(F)cc3O[C@H](C)C(=O)NCCF)c12", "unit.spec": "nM", "IC50": 2}
{"compound": "CCC(C)NC(=O)[C@@H](C)Oc1cc(F)ccc1Nc1ncnc2cc(N=S(C)(C)=O)cc(C)c12 (stereo partly shown)", "unit.spec": "nM", "IC50": 2}
{"compound": "Cc1cc(N=S2(=O)CCCC2)cc2ncnc(Nc3ccc(F)cc3O[C@H](C)C(=O)NCC#N)c12", "unit.spec": "nM", "IC50": 2}
{"compound": "C[C@@H](Oc1cc(F)ccc1Nc1ncnc2cc(N=S(C)(C)=O)cc(Cl)c12)C(=O)NCC(F)(F)F", "unit.spec": "nM", "IC50": 1}
{"compound": "Cc1cc(N=S(C)(C)=O)cc2ncnc(Nc3ccc(F)cc3O[C@H](C)C(=O)NCC3CCCO3)c12 (stereo partly shown)", "unit.spec": "nM", "IC50": 24}
{"compound": "Cc1cc(N=S2(=O)CCCC2)cc2ncnc(Nc3ccc(F)cc3O[C@H](C)C(=O)N(C)C(C)C)c12", "unit.spec": "nM", "IC50": 2}
